B1: unnamed (parent)
chain 1: MSMPDAMPLPGVGEELKQAKEIEDAEKYSFMATVTKAPKKQIQFADDMQEFTKFPTKTGRRSLSRSISQSSTDSYSSAASYTDSSDDEVSPREKQQTNSKGSSNFCVKNIKQAEFGRREIEIAEQDMSALISLRKRAQGEKPLAGAKIVGCTHITAQTAVLIETLCALGAQCRWSACNIYSTQNEVAAALAEAGVAVFAWKGESEDDFWWCIDRCVNMDGWQANMILDDGGDLTHWVYKKYPNVFKKIRGIVEESVTGVHRLYQLSKAGKLCVPAMNVNDSVTKQKFDNLYCCRESILDGLKRTTDVMFGGKQVVVCGYGEVGKGCCAALKALGAIVYITEIDPICALQACMDGFRVVKLNEVIRQVDVVITCTGNKNVVTREHLDRMKNSCIVCNMGHSNTEIDVTSLRTPELTWERVRSQVDHVIWPDGKRVVLLAEGRLLNLSCSTVPTFVLSITATTQALALIELYNAPEGRYKQDVYLLPKKMDEYVASLHLPSFDAHLTELTDDQAKYLGLNKNGPFKPNYYRY
chain 2: MASASSGPAAAGFSSLDAGAPAGTAAASGIKRATVSEGPSASVMPVKKIGHRSVDSSGETTYKKTTSSALKGAIQLGITHTVGSLSTKPERDVLMQDFYVVESIFFPSEGSNLTPAHHYNDFRFKTYAPVAFRYFRELFGIRPDDYLYSLCSEPLIELSNSGASGSLFYVSSDDEFIIKTVQHKEAEFLQKLLPGYYMNLNQNPRTLLPKFYGLYCVQAGGKNIRIVVMNNLLPRSVKMHMKYDLKGSTYKRRASQKEREKTLPTFKDLDFLQDIPDGLFLDADMYSALCKTLQRDCLVLQSFKIMDYSLLMSIHNMDHAQREPTSNDTQYSADTRRPAPQKALYSTAMESIQGEARRGGTVETEDHMGGIPARNNKGERLLLYIGIIDILQSYRFVKKLEHSWKALVHDGDTVSVHRPGFYAERFQRFMCNTVFKKIPLKPSPTKKFRSGPSFSRRSGPSGNSCTSQLMASGEHRAQVTTKAEVEPDVHLGRPDVLPQTPPLEEISEGSPVPGPSFSPVVGQPLQILNLSSTLEKLDVAESEFTH

Variants of: B1
Assay: co-immunoprecipitation, Western blot quantification
Settings: with partner chain of the complex shown; COS-7 cells; n = 4; parent: 100; read off a plot
quantity kind: percent of parent

Examples from the recorded data:
chain 1 S76G    100 % of WT
chain 1 S74G    14 % of WT
chain 1 S80A    57 % of WT
chain 1 S84A    43 % of WT
chain 1 T72A    90 % of WT

// percent of parent value for chain 1 S64A : 83 % of WT

// percent of parent value for chain 1 S68A : 2 % of WT

// percent of parent value for chain 1 S90A : 120 % of WT

// percent of parent value for chain 1 T82A : 26 % of WT

// percent of parent value for chain 1 S85A : 81 % of WT

// percent of parent value for chain 1 S66A : 49 % of WT

// percent of parent value for chain 1 S70A : 50 % of WT

// percent of parent value for chain 1 S71A : 3 % of WT

// percent of parent value for chain 1 S77A : 65 % of WT
